Every entry's value here was drawn from PubChem BioAssay (NCI).

test system: A549 NSCLC; assay: NCI tumour cell line growth inhibition, 48 h
Assignment: determine reported TGI for the given compounds.

Data request: Which TGI value belongs to O=c1c2cc(Br)ccc2oc2nc3n(c(=O)c12)CCCS3 ?
Data returned: > 100 µM

Data request: Recorded TGI of NC1=NC(c2ccccc2)N=C(Nc2ccccc2)N1 (configuration not stated) , please.
Data returned: > 100 µM

Data request: Fill blank: measured TGI of the compound NCCNCC(O)CO (configuration not stated) is ____.
Data returned: > 100 µM

Data request: Which TGI is reported for this compound? CCOc1ccccc1NC(=O)CCc1nnc2s/c(=C\CCc3ccccc3)c(=O)n12
Data returned: > 100 µM

Data request: TGI lookup needed for C/C(Cl)=N\OC(=O)Nc1ccccc1C(F)(F)F , thanks.
Data returned: > 100 µM

Data request: Which value of TGI has been reported for Cn1ccc(=Nc2ccc(NC(=O)c3ccc(N=c4ccn(C)c5ccc([N+](=O)[O-])cc45)cc3)cc2)cc1 in the records?
Data returned: > 100 µM

Data request: Quick one: TGI of OCCCSc1ccccc1SCCCO ?
Data returned: > 100 µM

Data request: Which TGI value is on record for FC(F)(F)c1ccc2c(c1)nc(Cc1ccccc1)n2C[C@@H]1CCCN2CCCCC12 (some centres not stated) ?
Data returned: 28.8 µM

Data request: Value lookup for TGI; key = COc1cccc(NCC(=O)Nn2c(-c3ccccc3)nc3ccccc3c2=O)c1
Data returned: > 100 µM

Data request: Need TGI, item CC(C)(C)c1cc(-c2ccc(-c3cc(C(C)(C)C)c(O)c(C(C)(C)C)c3)cc2)cc(C(C)(C)C)c1O
Data returned: > 100 µM

Data request: Please look up its TGI: c1ccc2nc3[nH]c4ccccc4c3cc2c1
Data returned: 9.14 µM

Data request: Reported TGI for OCCSCCCSCCO : what is it?
Data returned: > 100 µM

###

Can you tell me TGI for the items I'm about to list?
system: SF-268 CNS; experiment: NCI tumour cell line growth inhibition, 48 h

Data request: Provide the documented TGI with SF-268 CNS as the system for C/C=C(/C)C(=O)O[C@@H]1c2c(C)coc2C[C@H]2CC[C@H](O)[C@H](C)[C@]21C
Data returned: > 100 µM

Data request: Which TGI is reported with SF-268 CNS for this entry: Nc1ccn([C@H]2C[C@@H](O)[C@@H](CO)S2)c(=O)n1 ?
Data returned: > 100 µM

Data request: Under SF-268 CNS: TGI value of Oc1cc(Cl)cc2cc(Br)cnc12 ?
Data returned: > 48.1 µM

Data request: Short answer please: TGI, SF-268 CNS, entry COC(=O)[C@H]1[C@H](C(=O)OC)[C@@H](C)c2c(ccc3c2[nH]c2ccccc23)[C@@H]1C
Data returned: > 100 µM

Data request: Lab note: need TGI with SF-268 CNS for entry O=C(Oc1ccc([N+](=O)[O-])cc1)N1CCN(Cc2cccc(Oc3ccccc3)c2)CC1 , please look it up.
Data returned: > 100 µM

Data request: Hi! What's the reported TGI for Cc1ccc(NC(=O)CC(=O)n2nc(-c3ccccc3)c(N=Nc3ccc(Cl)cc3)c2-c2ccccc2)cc1 on SF-268 CNS?
Data returned: > 100 µM
